target-or-system: T1, ACKR3 N127D-YFP (UniProt P25106 1-362, N127D)
T1 construct: ACKR3 (CXCR7) with N127D (Ballesteros-Weinstein 3.35), made by PCR in ACKR3-YFP; also called N127^3.35D; source: HEK293, transiently transfected (polyethyleneimine), on or in cells; not shown: YFP, C-terminal, kept
T1 sequence (P25106 whole entry N127D): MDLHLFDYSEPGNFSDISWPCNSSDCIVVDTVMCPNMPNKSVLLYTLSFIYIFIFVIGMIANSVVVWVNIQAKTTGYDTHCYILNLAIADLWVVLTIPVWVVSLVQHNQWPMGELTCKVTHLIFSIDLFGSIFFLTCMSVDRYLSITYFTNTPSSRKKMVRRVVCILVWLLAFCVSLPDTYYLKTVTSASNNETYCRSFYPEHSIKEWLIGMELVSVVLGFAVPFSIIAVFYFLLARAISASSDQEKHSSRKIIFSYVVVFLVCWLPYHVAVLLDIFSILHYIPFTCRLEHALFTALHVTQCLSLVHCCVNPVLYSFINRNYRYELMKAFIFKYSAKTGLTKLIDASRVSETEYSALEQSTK
assay-comment: radioligand binding; HEK293 cells expressing ACKR3-YFP or mutants, pretreated 5 min at 37 °C with 100 μM phenylarsine oxide; 50 pM 125I-CXCL12 tracer in 50 mM HEPES pH 7.4, 5 mM MgCl2, 1 mM CaCl2, 0.2% BSA, with or without unlabeled CXCL12 or CXCL11, 30 min at 37 °C; bound label counted in a γ counter; IC50 taken as proxy for ligand affinity
condition-notes: one partner purified
pIC50: −log10 of the molar value.

binder | pIC50
CXCL11 (unlabeled recombinant chemokine) (ligand, human, UniProt O14625 22-94, looked up, chemokine CXCL11 (I-TAC); called human CXCL11 in the text on scavenging by MEFs; also called I-TAC; unlabeled CXCL11; source: recombinant; gift from Amanda Nevins and Brian Volkman or from PeproTech Inc) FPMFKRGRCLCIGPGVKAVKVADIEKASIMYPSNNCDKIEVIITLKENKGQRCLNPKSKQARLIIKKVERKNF | 8.18
